Data provenance is the Deep4Chem optical property database.

- assay comment: solvent given as SMILES
- condition label: in CCCCCCCCO
One threshold, 500 nm, splits the recorded emission maximum values: lower ones are satisfied, equal or higher ones are not satisfied.

{"molecular string": "O=C(O)COc1ccc2[nH]c3c(c2c1)CCCC3=O", "label": "satisfied"}
{"molecular string": "Oc1ccccc1/N=C/c1ccccc1Oc1ccccc1", "label": "satisfied"}
{"molecular string": "Nc1ccc2c(C(F)(F)F)cc(=O)oc2c1", "label": "satisfied"}
{"molecular string": "CN(C)c1cccc2c1ccc1c(=O)oc(-c3ccc(C(F)(F)F)cc3)cc12", "label": "not satisfied"}
{"molecular string": "CN(C)c1ccc(/C=C/c2ccc(-c3nnc(-c4ccc(-c5cc6ccccc6s5)cc4)o3)cc2)cc1", "label": "satisfied"}
